Assign refractive index to each entry below.
Assay Comment: refractive index (other wavelength) (dimensionless); xn = mol fraction of the nth substance listed
Recorded Conditions: 1103 K; 100 kPa; Liquid; Wavelength=632.8 nm; ellipsometry; x1 = 0.25
Answer with the value's number alone.

// returns reported refractive index for input [Cl][Ce]([Cl])[Cl] [cerium trichloride] + [Cl-].[K+]
1.475

// returns reported refractive index for input [Cl][Ce]([Cl])[Cl] [cerium trichloride] + [Cl-].[Cs+]
1.49

// returns reported refractive index for input [Cl][Sm]([Cl])[Cl] [samarium chloride] + [Cl-].[K+]
1.47

// returns reported refractive index for input [Cl][Sm]([Cl])[Cl] [samarium chloride] + [Cl-].[Na+]
1.513

---

Assay Comment: refractive index (other wavelength) (dimensionless); xn = mol fraction of the nth substance listed
Recorded Conditions: 1023 K; 100 kPa; Liquid; Wavelength=632.8 nm; ellipsometry; x1 = 0.75
Endpoint Name: refractive index
Answer with the value's number alone.

// returns reported refractive index for input [Cl-].[Cl-].[Cl-].[Gd+3] [gadolinium(III) chloride] + [Cl-].[Na+]
1.638

// returns reported refractive index for input [Cl-].[Cl-].[Cl-].[Gd+3] [gadolinium(III) chloride] + [Cl-].[Cs+]
1.613

// returns reported refractive index for input [Cl][Sm]([Cl])[Cl] [samarium chloride] + [Cl-].[Na+]
1.662

// returns reported refractive index for input [Cl-].[Cl-].[Cl-].[Gd+3] [gadolinium(III) chloride] + [Cl-].[K+]
1.635

// returns reported refractive index for input [Cl][Sm]([Cl])[Cl] [samarium chloride] + [Cl-].[K+]
1.651

---

Assay Comment: refractive index (other wavelength) (dimensionless); xn = mol fraction of the nth substance listed
Recorded Conditions: 1073 K; 100 kPa; Liquid; Wavelength=632.8 nm; ellipsometry; x1 = 0.5
Assign refractive index to each entry below.
Answer with the value's number alone.

// returns reported refractive index for input [Cl-].[Cl-].[Cl-].[Gd+3] [gadolinium(III) chloride] + [Cl-].[K+]
1.54

// returns reported refractive index for input [Cl-].[Cl-].[Cl-].[Gd+3] [gadolinium(III) chloride] + [Cl-].[Na+]
1.562

// returns reported refractive index for input [Cl][Sm]([Cl])[Cl] [samarium chloride] + [Cl-].[K+]
1.56

// returns reported refractive index for input [Cl][Sm]([Cl])[Cl] [samarium chloride] + [Cl-].[Na+]
1.583

// returns reported refractive index for input [Cl-].[Cl-].[Cl-].[Gd+3] [gadolinium(III) chloride] + [Cl-].[Cs+]
1.543

// returns reported refractive index for input [Cl][Ce]([Cl])[Cl] [cerium trichloride] + [Cl-].[Cs+]
1.553

// returns reported refractive index for input [Cl][Ce]([Cl])[Cl] [cerium trichloride] + [Cl-].[K+]
1.56

---

Assign refractive index to each entry below.
Assay Comment: refractive index (other wavelength) (dimensionless); xn = mol fraction of the nth substance listed
Recorded Conditions: 1073 K; 100 kPa; Liquid; Wavelength=632.8 nm; ellipsometry; x1 = 0.75
Answer with the value's number alone.

// returns reported refractive index for input [Cl-].[Cl-].[Cl-].[Gd+3] [gadolinium(III) chloride] + [Cl-].[Na+]
1.627

// returns reported refractive index for input [Cl][Ce]([Cl])[Cl] [cerium trichloride] + [Cl-].[K+]
1.591

// returns reported refractive index for input [Cl][Sm]([Cl])[Cl] [samarium chloride] + [Cl-].[Na+]
1.653

// returns reported refractive index for input [Cl][Ce]([Cl])[Cl] [cerium trichloride] + [Cl-].[Cs+]
1.627

// returns reported refractive index for input [Cl][Sm]([Cl])[Cl] [samarium chloride] + [Cl-].[K+]
1.63

// returns reported refractive index for input [Cl-].[Cl-].[Cl-].[Gd+3] [gadolinium(III) chloride] + [Cl-].[Cs+]
1.606

// returns reported refractive index for input [Cl-].[Cl-].[Cl-].[Gd+3] [gadolinium(III) chloride] + [Cl-].[K+]
1.62
